Assay: Lapatinib pharmacokinetics and uptake in rat brain tissue (BT)
Format: in vivo, rats
Conditions: male, Wistar, rat, brain tissue homogenate, po, 100 mg/kg, lapatinib p.o. 100 mg/kg alone, 3 h; read-out: Clapatinib in BT, single rat
Measured property: concentration at 3 h (ng/mL)
Answers are plain numbers, in ng/mL.

Problem: Report concentration at 3 h, nothing else, for this molecule: CS(=O)(=O)CCNCc1ccc(-c2ccc3ncnc(Nc4ccc(OCc5cccc(F)c5)c(Cl)c4)c3c2)o1
Result: 115

----------
Test: Lapatinib pharmacokinetics and uptake in rat brain tissue (BT)
Assay type: in vivo, rats
Settings: male, Wistar, rat, brain tissue homogenate, po, 100 mg/kg, lapatinib p.o. 100 mg/kg alone, 2 h; read-out: BT corr (BT homogenate corrected), S
Measured property: concentration at 2 h

Problem: Tell us which concentration at 2 h value is on record for CS(=O)(=O)CCNCc1ccc(-c2ccc3ncnc(Nc4ccc(OCc5cccc(F)c5)c(Cl)c4)c3c2)o1
Result: 41.4 ng/mL

----------
Test: Lapatinib pharmacokinetics and uptake in rat brain tissue (BT)
Type: in vivo, rats
Details: male, Wistar, rat, brain tissue homogenate, po, 100 mg/kg, lapatinib p.o. 100 mg/kg alone, 8 h; read-out: Clapatinib in BT, single rat
Procedure: This study was conducted on rats, which are a promising model to predict P-gp-based drug-drug interactions at the human BBB [15]. The animals were allowed to acclimate for one week before the beginning of the experiments. Adult male Wistar-strain rats (weight 470–525 g) were used in the study. […]
Measured property: concentration at 8 h (ng/mL)
One number for each entry, in ng/mL.

Problem: Give reported concentration at 8 h value for CS(=O)(=O)CCNCc1ccc(-c2ccc3ncnc(Nc4ccc(OCc5cccc(F)c5)c(Cl)c4)c3c2)o1
Result: 108

----------
Assay: Lapatinib pharmacokinetics and uptake in rat brain tissue (BT)
Type: in vivo, rats
Settings: male, Wistar, rat, brain tissue homogenate, oral, lapatinib 100 mg/kg + elacridar, 0.5 h; read-out: BT corr (BT homogenate), S
Measured property: concentration at 0.5 h (ng/mL)
One number for each entry, in ng/mL.

Problem: Report concentration at 0.5 h for CS(=O)(=O)CCNCc1ccc(-c2ccc3ncnc(Nc4ccc(OCc5cccc(F)c5)c(Cl)c4)c3c2)o1
Result: 43.6

----------
Test: Lapatinib pharmacokinetics and uptake in rat brain tissue (BT)
Type: in vivo, rats
Conditions: male, Wistar, rat, brain tissue (homogenate supernatant), po, 100 mg/kg; read-out: Kp (tissue-to-plasma partition coefficient, AUC0-∞-tissue/AUC0-∞-plasma)
Measured property: Kp
Answers are plain numbers.

Problem: Quick one: give measured Kp for CS(=O)(=O)CCNCc1ccc(-c2ccc3ncnc(Nc4ccc(OCc5cccc(F)c5)c(Cl)c4)c3c2)o1 [lapatinib]
Result: 0.036

----------
Test: Lapatinib pharmacokinetics in rat blood plasma (BP), HPLC-MS/MS, noncompartmental analysis
Assay type: in vivo, rats
Details: male, Wistar, rat, plasma, oral, lapatinib 100 mg/kg + elacridar, 4 h; read-out: Clapatinib in BP, single rat
Measured property: concentration at 4 h

Problem: Consider the molecule CS(=O)(=O)CCNCc1ccc(-c2ccc3ncnc(Nc4ccc(OCc5cccc(F)c5)c(Cl)c4)c3c2)o1 and give its recorded concentration at 4 h.
Result: 1580 ng/mL

----------
Test: Lapatinib pharmacokinetics and uptake in rat cerebrospinal fluid (CSF)
Assay type: in vivo, rats
Conditions: male, Wistar, rat, cerebrospinal fluid (CSF), po, 100 mg/kg, lapatinib p.o. 100 mg/kg alone, 6 h; read-out: Clapatinib in CSF, S (medium value)
Measured property: concentration at 6 h (ng/mL)
Give bare numbers, in ng/mL.

Problem: Identify concentration at 6 h associated with the molecule CS(=O)(=O)CCNCc1ccc(-c2ccc3ncnc(Nc4ccc(OCc5cccc(F)c5)c(Cl)c4)c3c2)o1 [lapatinib]
Result: 26.9

----------
Experiment: Lapatinib pharmacokinetics and uptake in rat cerebrospinal fluid (CSF)
Assay type: in vivo, rats
Conditions: male, Wistar, rat, cerebrospinal fluid (CSF), po, 100 mg/kg, lapatinib p.o. 100 mg/kg alone, 6 h; read-out: Clapatinib in CSF, single rat
Measured property: concentration at 6 h (ng/mL)
Answers are plain numbers, in ng/mL.

Problem: Entry CS(=O)(=O)CCNCc1ccc(-c2ccc3ncnc(Nc4ccc(OCc5cccc(F)c5)c(Cl)c4)c3c2)o1 [lapatinib] needs its concentration at 6 h filled in; supply it.
Result: 26.9

----------
Test: Lapatinib pharmacokinetics and uptake in rat cerebrospinal fluid (CSF)
Assay type: in vivo, rats
Conditions: male, Wistar, rat, cerebrospinal fluid, po, 100 mg/kg; lapatinib 100 mg/kg oral alone (IIL)
Measured property: Tmax (h)
Numbers only, in h.

Problem: Look up and report measured Tmax for this entry: CS(=O)(=O)CCNCc1ccc(-c2ccc3ncnc(Nc4ccc(OCc5cccc(F)c5)c(Cl)c4)c3c2)o1 [lapatinib]
Result: 1

----------
Assay: Lapatinib pharmacokinetics in rat blood plasma (BP), HPLC-MS/MS, noncompartmental analysis
Assay type: in vivo, rats
Conditions: male, Wistar, rat, plasma, oral, lapatinib 100 mg/kg + elacridar, 1 h; read-out: Clapatinib in BP, single rat
Measured property: concentration at 1 h

Problem: // Input: CS(=O)(=O)CCNCc1ccc(-c2ccc3ncnc(Nc4ccc(OCc5cccc(F)c5)c(Cl)c4)c3c2)o1 [lapatinib] . Output its concentration at 1 h only.
Result: 2050 ng/mL

----------
Experiment: Lapatinib pharmacokinetics and uptake in rat brain tissue (BT)
Type: in vivo, rats
Conditions: male, Wistar, rat, brain tissue homogenate, corrected for residual blood, po, 100 mg/kg, lapatinib p.o. 100 mg/kg alone, 2 h; read-out: BT corr (BT homogenate corrected), S
Measured property: concentration at 2 h (ng/mL)
One number for each entry, in ng/mL.

Problem: Please give the documented concentration at 2 h of CS(=O)(=O)CCNCc1ccc(-c2ccc3ncnc(Nc4ccc(OCc5cccc(F)c5)c(Cl)c4)c3c2)o1
Result: 41.4

----------
Experiment: Lapatinib pharmacokinetics and uptake in rat cerebrospinal fluid (CSF)
Assay type: in vivo, rats
Conditions: male, Wistar, rat, cerebrospinal fluid, po, 100 mg/kg, cerebrospinal fluid; lapatinib 100 mg/kg oral alone (IIL); read-out: MRT0-t
Measured property: MRT last (h)
Numbers only, in h.

Problem: Note down MRT last recorded for CS(=O)(=O)CCNCc1ccc(-c2ccc3ncnc(Nc4ccc(OCc5cccc(F)c5)c(Cl)c4)c3c2)o1 [lapatinib]
Result: 5.7

----------
Assay: Lapatinib pharmacokinetics and uptake in rat cerebrospinal fluid (CSF)
Format: in vivo, rats
Settings: male, Wistar, rat, cerebrospinal fluid, oral, lapatinib 100 mg/kg + elacridar, 12 h; read-out: Clapatinib in CSF, S
Measured property: concentration at 12 h (ng/mL)
Give bare numbers, in ng/mL.

Problem: // Input: CS(=O)(=O)CCNCc1ccc(-c2ccc3ncnc(Nc4ccc(OCc5cccc(F)c5)c(Cl)c4)c3c2)o1 [lapatinib] . Output its concentration at 12 h only.
Result: 2.62

----------
Experiment: Lapatinib pharmacokinetics and uptake in rat brain tissue (BT)
Assay type: in vivo, rats
Conditions: male, Wistar, rat, brain tissue homogenate, po, 100 mg/kg, lapatinib p.o. 100 mg/kg alone, 6 h; read-out: Clapatinib in BT, single rat
Measured property: concentration at 6 h
Give your result as the value with the unit written after it.

Problem: Identify measured concentration at 6 h corresponding to CS(=O)(=O)CCNCc1ccc(-c2ccc3ncnc(Nc4ccc(OCc5cccc(F)c5)c(Cl)c4)c3c2)o1
Result: 131 ng/mL

----------
Experiment: Lapatinib pharmacokinetics and uptake in rat brain tissue (BT);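 on BT corr (BT homogenate), single rat: brain concentration corrected for residual brain blood by the Fridén method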
Type: in vivo, rats
Details: male, Wistar, rat, brain tissue homogenate, corrected for residual blood, oral, lapatinib 100 mg/kg + elacridar, 24 h; read-out: BT corr (BT homogenate), single rat
Measured property: concentration at 24 h (ng/mL)
Give bare numbers, in ng/mL.

Problem: Return concentration at 24 h (reported value) for this molecule: CS(=O)(=O)CCNCc1ccc(-c2ccc3ncnc(Nc4ccc(OCc5cccc(F)c5)c(Cl)c4)c3c2)o1
Result: 52.7

----------
Assay: Lapatinib pharmacokinetics and uptake in rat brain tissue (BT)
Type: in vivo, rats
Conditions: male, Wistar, rat, brain tissue homogenate, po, 100 mg/kg, lapatinib p.o. 100 mg/kg alone, 6 h; read-out: Clapatinib in BT, S (medium value)
Measured property: concentration at 6 h (ng/mL)
Answers are plain numbers, in ng/mL.

Problem: # return recorded concentration at 6 h for entry CS(=O)(=O)CCNCc1ccc(-c2ccc3ncnc(Nc4ccc(OCc5cccc(F)c5)c(Cl)c4)c3c2)o1 [lapatinib]
Result: 101

----------
Assay: Lapatinib pharmacokinetics and uptake in rat brain tissue (BT)
Assay type: in vivo, rats
Settings: male, Wistar, rat, brain, po, 100 mg/kg, brain tissue; lapatinib 100 mg/kg oral alone (IIL)
Measured property: AUC(0-inf) (µg·h/mL)
One number for each entry, in µg·h/mL.

Problem: Please give measured AUC(0-inf) of the following entry: CS(=O)(=O)CCNCc1ccc(-c2ccc3ncnc(Nc4ccc(OCc5cccc(F)c5)c(Cl)c4)c3c2)o1
Result: 1.35
